# Tested on: Chenopodium album (CHEAL)
# protocol_summary: Post-emergence efficacy, glasshouse
# Format: in vivo
# condition_details: 1000 g/Ha, after 13 days, 100=total damage to plant, 0=no damage to plant
Kind request: treat 90 as inclusive, so Control of weed species CHEAL at 90 or higher is yes, anything lower is no.

Could you please find out whether C[n+]1cc(P(=O)([O-])Oc2ccccc2)c2ccccc2n1 has Control of weed species CHEAL that meets 90 or exceeds it?
no

Also check CCOP(=O)(O)c1c[n+](C)nc2ccccc12.[Cl-]
yes

Also check COc1ccc2c(P(=O)([O-])OC)c[n+](C)nc2c1
no

Also check COP(=O)([O-])c1c[n+](C)nc2cc(C(F)(F)F)ccc12
no

====

# Test system: Echinochloa crus-galli (ECHCG)
# protocol_summary: Post-emergence efficacy, glasshouse
# Assay type: in vivo
# condition_details: 1000 g/Ha, after 13 days, 100=total damage to plant, 0=no damage to plant
endpoint: Control of weed species ECHCG
No unit in the answer, please; the number alone is enough.

Under Echinochloa crus-galli (ECHCG): Control of weed species ECHCG value of C#CCOP(=O)([O-])c1c[n+](C)nc2ccccc12 ?
90

Also check C[n+]1cc(P(=O)([O-])OCC2CC2)c2ccccc2n1
80

Also check C[n+]1cc(P(=O)([O-])OCC2CCCO2)c2ccccc2n1 (centres unmarked)
90

Also check COP(=O)([O-])c1c[n+](C)nc2cc(C)ccc12
70

Also check COc1ccc2c(P(=O)([O-])OC)c[n+](C)nc2c1
10

====

# System: Digitaria sanguinalis (DIGSA)
# protocol_summary: Post-emergence efficacy, glasshouse
# Assay type: in vivo
# condition_details: 1000 g/Ha, after 13 days, 100=total damage to plant, 0=no damage to plant
Kind request: treat 80 as inclusive, so Control of weed species DIGSA at 80 or higher is met, anything lower is not met.

Could you please find out whether C[n+]1cc(P(=O)([O-])Oc2ccccc2)c2ccccc2n1 has Control of weed species DIGSA that meets 80 or exceeds it?
not met

Also check COc1cccc2c(P(=O)([O-])OC)c[n+](C)nc12
met

Also check COCCOP(=O)([O-])c1c[n+](C)nc2ccccc12
met

Also check C[n+]1cc(P(=O)([O-])OCC2CC2)c2ccccc2n1
met

Also check COP(=O)([O-])c1c[n+](C)nc2cc(C(F)(F)F)ccc12
not met

Also check C[n+]1cc(P(=O)([O-])OCC2CCCO2)c2ccccc2n1 (stereo not drawn)
not met

Also check C[n+]1cc(P(=O)([O-])OCC(F)(F)F)c2ccccc2n1
met

====

Give Control of weed species CHEAL for every item shown.
# Test system: Chenopodium album (CHEAL)
# protocol_summary: Post-emergence efficacy, glasshouse
# Format: in vivo
# condition_details: 1000 g/Ha, after 13 days, 100=total damage to plant, 0=no damage to plant

// Control of weed species CHEAL lookup, key: COP(=O)([O-])c1c[n+](C)nc2cc(C)ccc12 [Composition C14]
100

Also check C[n+]1cc(P(=O)([O-])OCC(F)(F)F)c2ccccc2n1 [Composition C6]
100

Also check C[n+]1cc(P(=O)([O-])OCC2CCCO2)c2ccccc2n1 (stereo not drawn) [Composition C25]
90
